# assay-setup: 316.41 K; 101.33 kPa; Liquid; Pulse-echo method
property: speed of sound (m/s)
Express your answer in m/s, writing the number without its unit.

Request: Give the reported speed of sound for this compound. CCCC(=O)[O-].C[NH2+]CCO [N-methyl-2-hydroxyethylammonium butanoate]
Result: 1557.5

Request: Identify speed of sound associated with the compound CCC(=O)[O-].C[NH2+]CCO [2-hydroxy-N-methylethanaminium propionate]
Result: 1636.1

Request: Name the recorded speed of sound of the compound listed here: CCCCC(=O)[O-].C[NH2+]CCO [2-hydroxy-N-methylethanaminium pentanoate]
Result: 1492.2

Request: Item CC(C)C(=O)[O-].C[NH2+]CCO [2-hydroxy-N-methylethanaminium isobutyrate] : provide speed of sound
Result: 1559.8

Request: Supply reported speed of sound belonging to this compound: C[NH2+]CCO.O=C[O-] [2-hydroxy-N-methylethanaminium formate]
Result: 1779.7
